Please respond with reported AUC(0-inf) for every item in the list.
ASSAY TEXT: AUC ((0 to infinity)) in Beagle dog at 5 mg/kg, po dosed as suspension
Type: ADME, organism-based, Canis lupus familiaris
Design: time infinity, dose 5 mg/kg, route oral
CONDITIONS: plasma
Numeric answer only, unit µM·h assumed.

Name the reported AUC(0-inf) value associated with the compound CCn1c(C(=O)c2cc(C)cc(C#N)c2)c(C(C)C)c(=O)n(COC(=O)OC(C)C)c1=O
54

Name the reported AUC(0-inf) value associated with the compound CCn1c(C(=O)c2cc(C)cc(C#N)c2)c(C(C)C)c(=O)[nH]c1=O
13.1

Name the reported AUC(0-inf) value associated with the compound CCn1c(C(=O)c2cc(C)cc(C#N)c2)c(C(C)C)c(=O)n(COC(C)=O)c1=O
14.7

Name the reported AUC(0-inf) value associated with the compound CCn1c(C(=O)c2cc(C)cc(C#N)c2)c(C(C)C)c(=O)n(COP(=O)(O)O)c1=O
18.8

----------
Tested on: Human immunodeficiency virus 1
ASSAY TEXT: Antiviral activity against wild type HIV1 infected in human MT2 cells
Assay type: functional, organism-based
CONDITIONS: Human immunodeficiency virus 1, MT2
Flag rule - EC50 less than 10 nM flags rule met; the remaining entries get rule not met.

Strictly below 10 nM in EC50? CCCn1c(C(=O)c2cc(C)cc(C#N)c2)c(C(C)C)c(=O)[nH]c1=O
rule met

Strictly below 10 nM in EC50? CCn1c(C(F)(F)c2cc(C)cc(C#N)c2)c(C(C)C)c(=O)[nH]c1=O
rule met

Strictly below 10 nM in EC50? Cc1cc(C#N)cc(C(=O)c2[nH]c(=O)[nH]c(=O)c2C(C)C)c1
rule not met

Strictly below 10 nM in EC50? CCn1c(Oc2cc(C)cc(C#N)c2)c(C(C)C)c(=O)[nH]c1=O
rule not met

Strictly below 10 nM in EC50? CCCCn1c(C(=O)c2cc(C)cc(C#N)c2)c(C(C)C)c(=O)[nH]c1=O
rule met

Strictly below 10 nM in EC50? CCn1c(C(F)c2cc(C)cc(C#N)c2)c(C(C)C)c(=O)[nH]c1=O (stereo not given)
rule not met

Strictly below 10 nM in EC50? CCn1c(C(=O)c2cc(C)cc(C#N)c2)c(C(C)C)c(=O)[nH]c1=O
rule met

Strictly below 10 nM in EC50? Cc1cc(C#N)cc(C(=O)c2c(C(C)C)c(=O)[nH]c(=O)n2C)c1
rule not met

Strictly below 10 nM in EC50? CCc1c(C(=O)c2cc(C)cc(C#N)c2)n(CC)c(=O)[nH]c1=O
rule not met

----------
ASSAY TEXT: Half life in Beagle dog at 0.5 mg/kg, iv or. 5 mg/kg, po
Format: ADME, organism-based, Canis lupus familiaris
CONDITIONS: in vivo
VALUE TYPE: half-life
Remember to follow the number with its unit.

Name the reported half-life value associated with the compound CCCCn1c(C(=O)c2cc(C)cc(C#N)c2)c(C(C)C)c(=O)[nH]c1=O
6.1 h

Name the reported half-life value associated with the compound Cc1cc(C#N)cc(C)c1Oc1nc(Nc2ccc(C#N)cc2)nc(N)c1Br
8.87 h

Name the reported half-life value associated with the compound Cc1cc(C#N)cc(C(=O)c2[nH]c(=O)[nH]c(=O)c2C(C)C)c1
6.4 h

Name the reported half-life value associated with the compound CCCn1c(C(=O)c2cc(C)cc(C#N)c2)c(C(C)C)c(=O)[nH]c1=O
1.67 h

Name the reported half-life value associated with the compound CCn1c(C(=O)c2cc(C)cc(C#N)c2)c(C(C)C)c(=O)[nH]c1=O
6.5 h

Name the reported half-life value associated with the compound CCc1c(C(=O)c2cc(C)cc(C#N)c2)n(CC)c(=O)[nH]c1=O
1.42 h
